Please provide measured pKa for the entries that follow.
CONDITION CONTEXT: basic group
Give bare numbers.

>>> assay_result("CNCCC[NH2+]C")
8.68

Could you report pKa for every entry in the following list?
1. CC(C)C1CC(CC(=O)[O-])NC1C(=O)[O-] (centres undefined)
2. Cc1nc2cc(N)ccc2n1C
3. c1csc(-c2nccs2)n1

[10.4, 7, 2.76]

* * *

CONDITION CONTEXT: acidic group
Returns yes (1) if the recorded pKa is greater than or equal to 5, and no (0) otherwise.

Recorded results for 4 compounds are shown here.
>>> label_value("Cc1cc(O)ccc1C(=O)O")
"no (0)"
>>> label_value("CCOc1cccc(C(=O)O)c1")
"no (0)"
>>> label_value("O=C1Cc2c1cc([N+](=O)[O-])c(O)c2Br")
"no (0)"
>>> label_value("CCOC(=O)c1c[nH+]c2cc([N+](=O)[O-])ccc2c1O")
"no (0)"

API: above_or_equal(metric=pKa, cutoff=5) for item CC1=CC(=O)C=C(C)C1=NO
yes (1)

Please answer likewise for OC(O)c1cccnc1
yes (1)

Please answer likewise for Cc1nc2c(=O)[nH]c(=O)[nH]c2n1C
yes (1)

Please answer likewise for CC1c2cc(O)ccc2CC1CC(=O)O (centres undefined)
yes (1)

Please answer likewise for Cc1cccc([P+](c2cccc(C)c2)(c2cccc(C)c2)C2c3ccccc3-c3ccccc32)c1
yes (1)
